Origin of measurements: DBAASP

# Test system: Pseudomonas aeruginosa PAO1
# measurement.protocol: ≥ marks a high value that may be exact or a test limit, other limits are often not marked, values filed in µg/mL are converted to µM
metric: MIC

compound: CC(C)C[C@H](NC(=O)[C@H](CCCCN)NC(=O)[C@H](CCCCN)NC(=O)[C@H](CC(C)C)NC(=O)[C@H](CC(C)C)NC(=O)[C@H](CCCCN)NC(=O)[C@H](CCCCN)NC(=O)[C@H](CC(C)C)NC(=O)[C@H](CC(C)C)NC(=O)[C@H](CCCCN)NC(=O)[C@H](CCCCN)NC(=O)[C@@H](N)CC(C)C)C(N)=O [LKKLLKKLLKKL]
assayed.system: Pseudomonas aeruginosa PAO1
observed: 7.81 µM
//
compound: CC(C)C[C@H](NC(=O)[C@H](Cc1ccccc1)NC(=O)[C@H](C)NC(=O)[C@H](C)NC(=O)[C@H](CCCCN)NC(=O)[C@H](CCCCN)NC(=O)[C@H](CCCCN)NC(=O)[C@@H](N)CCCCN)C(=O)N[C@@H](CCCCN)C(=O)N[C@@H](CC(C)C)C(=O)N[C@@H](Cc1c[nH]c2ccccc12)C(=O)N[C@@H](CC(C)C)C(=O)N[C@@H](CCCCN)C(=O)N[C@@H](CC(C)C)C(=O)N[C@@H](Cc1ccccc1)C(=O)N[C@@H](C)C(=O)N[C@@H](C)C(N)=O [KKKKAAFLKLWLKLFAA]
assayed.system: Pseudomonas aeruginosa PAO1
observed: > 50 µM
//
compound: CC(C)C[C@H](NC(=O)[C@H](CC(C)C)NC(=O)[C@H](CCCCN)NC(=O)CNC(=O)[C@H](CC(C)C)NC(=O)[C@H](CO)NC(=O)[C@H](CC(C)C)NC(=O)[C@H](CO)NC(=O)[C@H](CC(C)C)NC(=O)[C@H](CC(C)C)NC(=O)CN)C(N)=O [GLLSLSLGKLL]
assayed.system: Pseudomonas aeruginosa PAO1
observed: > 25 µM

----------
The following compounds have recorded MIC on Staphylococcus aureus ATCC 29213.

smiles: CC[C@H](C)[C@H](NC(=O)[C@@H](NC(=O)[C@H](C)NC(=O)[C@H](CCCN=C(N)N)NC(=O)[C@H](CC(N)=O)NC(=O)[C@H](Cc1ccccc1)NC(=O)[C@H](CO)NC(=O)[C@@H](N)C(C)C)C(C)C)C(=O)N[C@@H](Cc1cnc[nH]1)C(=O)N[C@@H](CO)C(=O)N[C@@H](CC(C)C)C(=O)N[C@@H](CC(C)C)C(=O)NCC(N)=O
MIC: > 496 µM
//
smiles: CC[C@H](C)[C@H](NC(=O)[C@H](CCCCN)NC(=O)[C@H](CCCCN)NC(=O)[C@@H](N)CCC(N)=O)C(=O)N[C@@H](CCCN=C(N)N)C(=O)N[C@@H](C)C(=O)N[C@@H](CCCN=C(N)N)C(=O)N[C@@H](CC(C)C)C(=O)N[C@@H](CO)C(=O)N[C@@H](C)C(=O)O
MIC: > 54.7 µM
//
smiles: CC[C@H](C)[C@H](NC(=O)[C@H](C)NC(=O)[C@H](CCCCN)NC(=O)[C@@H](N)CCC(N)=O)C(=O)N[C@@H](CCCN=C(N)N)C(=O)N[C@H](C(=O)N[C@@H](CCCN=C(N)N)C(=O)N[C@@H](CC(C)C)C(=O)N[C@@H](CO)C(=O)N[C@@H](C)C(=O)O)C(C)C
MIC: > 56.1 µM
//
smiles: CC[C@H](C)[C@H](NC(=O)[C@H](C)NC(=O)[C@@H](NC(=O)[C@@H]1CCCN1C(=O)[C@@H](NC(=O)[C@H](CC(C)C)NC(=O)[C@@H]1CCCN1C(=O)[C@H](Cc1c[nH]c2ccccc12)NC(=O)[C@H](Cc1ccccc1)NC(=O)[C@H](CCCN=C(N)N)NC(=O)[C@@H](N)CCCCN)C(C)C)C(C)C)C(=O)N[C@@H](CC(N)=O)C(=O)N[C@H](C(=O)N[C@H](C(=O)N[C@@H](C)C(N)=O)C(C)C)[C@@H](C)O
MIC: > 128 µM
